# target_of_assay: Full length (FL) 3-Phosphoglycerate Dehydrogenase (PHGDH) (Homo sapiens, UniProt O43175)
# Construct: Full length (FL) 3-Phosphoglycerate Dehydrogenase (PHGDH) Diaphorase coupled assay (500 uM NAD)
# Sequence (O43175 whole entry): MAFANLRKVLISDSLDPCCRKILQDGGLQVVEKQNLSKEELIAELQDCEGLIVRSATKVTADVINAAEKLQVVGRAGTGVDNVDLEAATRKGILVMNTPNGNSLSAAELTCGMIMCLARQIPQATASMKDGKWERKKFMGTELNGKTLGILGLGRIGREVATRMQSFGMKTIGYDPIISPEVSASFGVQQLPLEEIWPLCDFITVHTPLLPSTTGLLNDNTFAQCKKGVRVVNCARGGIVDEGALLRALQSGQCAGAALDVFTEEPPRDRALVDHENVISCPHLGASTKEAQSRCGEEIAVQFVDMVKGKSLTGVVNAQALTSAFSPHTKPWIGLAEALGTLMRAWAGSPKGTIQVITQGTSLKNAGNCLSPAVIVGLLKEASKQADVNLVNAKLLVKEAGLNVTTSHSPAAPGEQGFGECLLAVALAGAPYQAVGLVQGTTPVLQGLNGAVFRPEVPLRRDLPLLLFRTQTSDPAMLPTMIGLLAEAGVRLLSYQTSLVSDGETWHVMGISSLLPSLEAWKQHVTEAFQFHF
# test_method_notes: Full length (FL) PHGDH Diaphorase coupled assay (500 uM NAD)
# Format: biochemical
# test_context: 5 nM PHGDH, 30° C., 60 minutes
measurement_label: IC50

COc1cc2c(cc(C(=O)N[C@H](CO)c3ccc(C(=O)O)cc3Cl)n2C)c(Cl)c1C	0.01 to 1 µM

For every record below, what is its IC50?
1. COc1cc2c(cc(C(=O)N[C@H](CO)c3ccc(C(=O)O)cc3C)n2C)c(Cl)c1Cl
2. Cn1c(C(=O)N[C@H](CO)c2ccc(C(=O)O)cc2F)cc2c(Cl)c(Cl)ccc21
3. CCC(C(=O)O)c1ccc([C@@H](CO)NC(=O)c2cc3c(Cl)c(OC)ccc3n2C)cc1 (mixture of isomers)
4. COc1cc2c(cc(C(=O)N[C@H](CO)c3ccc(CC(=O)O)cc3F)n2C)c(Cl)c1F
5. COc1ccc2c(cc(C(=O)N[C@H](CO)c3ccc(C(=O)O)cc3F)n2C)c1Cl
6. Cn1c(C(=O)N[C@H](CO)c2ccc(C(=O)O)cc2Cl)cc2c(Cl)c(Cl)ccc21
7. CC(C(=O)O)c1ccc([C@@H](CO)NC(=O)c2cc3c(Cl)c(Cl)ccc3n2C)cc1 (some centres unmarked)

1: 0.01 to 1 µM; 2: 0.01 to 1 µM; 3: 0.01 to 1 µM; 4: 0.01 to 1 µM; 5: 0.01 to 1 µM; 6: 0.01 to 1 µM; 7: 0.01 to 1 µM
